Hello, the source for this data is patent US10703733B2, in case you need it.

target: MCL-1/Bim interaction (recombinant human MCL-1 protein, residues 171-327; biotinylated human Bim peptide, residues 51-76) (Homo sapiens (Human)); assay: MCL-1/Bim Binding AlphaLISA Assay; conditions: 0.0625 nM 6xHis-Mcl-1 (171-327), 0.0625 nM biotinylated-Bim peptide
Sequence (Q07820 171-327): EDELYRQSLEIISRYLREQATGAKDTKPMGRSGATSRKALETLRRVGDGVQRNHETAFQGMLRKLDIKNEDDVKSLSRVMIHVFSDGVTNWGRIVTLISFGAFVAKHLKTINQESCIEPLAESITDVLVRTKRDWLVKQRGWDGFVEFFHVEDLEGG
assay_endpoint: IC50

Below, each entry is followed by its recorded IC50 result.
INSERT INTO results (molecule, observed_value) VALUES
  ('CO[C@H]1/C=C/C[C@H](C)C[S@@](=O)(NC(=O)COC2(C)CCOCC2)=NC(=O)c2ccc3c(c2)N(C[C@@H]2CC[C@H]21)C[C@@]1(CCCc2cc(Cl)ccc21)CO3 [Example 124]', '0.066 nM'),
  ('COC[C@H]1Cn2cc(C(=O)N[S@@]3(=O)=NC(=O)c4ccc5c(c4)N(C[C@@H]4CC[C@H]4[C@@H](O)/C=C/C[C@H](C)C3)C[C@@]3(CCCc4cc(Cl)ccc43)CO5)cc2CO1 [Example 325]', '0.1 nM'),
  ('CO[C@H]1/C=C/C[C@H](C)C[S@@](=O)(NC(=O)N[C@H]2C[C@@H]2CO)=NC(=O)c2ccc3c(c2)N(C[C@@H]2CC[C@H]21)C[C@@]1(CCCc2cc(Cl)ccc21)CO3 [Example 171]', '0.033 nM');

Could you now consider this next molecule?
Task: Using known records, supply IC50 for CO[C@H]1/C=C/C[C@H](C)C[S@@](=O)(NC(=O)N2CC(C3COC3)C2)=NC(=O)c2ccc3c(c2)N(C[C@@H]2CC[C@H]21)C[C@@]1(CCCc2cc(Cl)ccc21)CO3 [Example 261]
Output: 0.053 nM

----------
target: MCL-1/Bim interaction (recombinant human MCL-1 protein, residues 171-327; biotinylated human Bim peptide, residues 51-76) (Homo sapiens (Human)); assay: MCL-1/Bim Binding AlphaLISA Assay; settings: 0.0625 nM 6xHis-Mcl-1 (171-327), 0.0625 nM biotinylated-Bim peptide
assay_endpoint: IC50
Please make sure the unit comes right after the number.

Below are worked cases with known answers.
INSERT INTO measurements (compound, assay_endpoint, observed_value) VALUES
  ('CO[C@H]1/C=C/CCC[S@@](=O)(NC(=O)CCS(C)(=O)=O)=NC(=O)c2ccc3c(c2)N(C[C@@H]2CC[C@H]21)C[C@@]1(CCCc2cc(Cl)ccc21)CO3', 'IC50', '200 pM'),
  ('CO[C@H]1/C=C/C[C@H](C)C[S@@](=O)(NC(=O)NC2CCC2)=NC(=O)c2ccc3c(c2)N(C[C@@H]2CC[C@H]21)C[C@@]1(CCCc2cc(Cl)ccc21)CO3', 'IC50', '56 pM'),
  ('CO[C@H]1/C=C/C[C@H](C)C[S@@](=O)(NC(=O)C2CC2c2cnn(C)c2)=NC(=O)c2ccc3c(c2)N(C[C@@H]2CC[C@H]21)C[C@@]1(CCCc2cc(Cl)ccc21)CO3 (some centres unmarked)', 'IC50', '78 pM'),
  ('CCn1cc(C(=O)N[S@@]2(=O)=NC(=O)c3ccc4c(c3)N(C[C@@H]3CC[C@H]3[C@@H](OC)/C=C/CCC2)C[C@@]2(CCCc3cc(Cl)ccc32)CO4)cn1 [Example 405]', 'IC50', '113 pM');

Now consider a different compound.
Task: Let me know recorded IC50 for COc1nn(C)cc1C(=O)N[S@@]1(=O)=NC(=O)c2ccc3c(c2)N(C[C@@H]2CC[C@H]2[C@@H](O)CCC[C@H](C)[C@H]1C)C[C@@]1(CCCc2cc(Cl)ccc21)CO3 , thanks.
Output: 30 pM
